MEASURED_ON: Peroxisome proliferator-activated receptor gamma (Homo sapiens)
METHOD_DESCRIPTION: Agonist activity at human PPARgamma expressed in african green monkey COS7 cells at 1 uM by Gal4 transactivation assay relative to pioglitazone
Type: functional, cell-based
CONDITION_SUMMARY: COS-7
METRIC: Activity (%)

> print(dat)
                                   molecule  endpoint.unit  recorded.value
1       Cc1cccc(OCCCOc2ccc(SCC(=O)O)cc2)c1C              %              77
2  CCCCC(Sc1ccc(OCCCOc2ccccc2)cc1)C(=O)O (stereo unspecified)              %              83
3  CCCCC(Cc1ccc(OCCCOc2cccc(C)c2C)cc1)C(=O)O (stereo unspecified)              %             120
4  CCCC[C@H](Sc1ccc(OCCCOc2cccc(C)c2C)cc1)C(=O)O              %              77
5  CCCCC(Sc1ccc(OCCCOc2ccccc2C)cc1)C(=O)O (stereo unspecified)              %             114
6  CCCCC(Sc1ccc(OCCCOc2ccc(Cl)c(C(F)(F)F)c2)cc1)C(=O)O (stereo unspecified)              %              96
